Here the recorded pIC50 is given for each entry.
# target_or_test_system: factor Xa (FXa) (Homo sapiens, UniProt P00742)
# Sequence (P00742 235-488 limits assumed): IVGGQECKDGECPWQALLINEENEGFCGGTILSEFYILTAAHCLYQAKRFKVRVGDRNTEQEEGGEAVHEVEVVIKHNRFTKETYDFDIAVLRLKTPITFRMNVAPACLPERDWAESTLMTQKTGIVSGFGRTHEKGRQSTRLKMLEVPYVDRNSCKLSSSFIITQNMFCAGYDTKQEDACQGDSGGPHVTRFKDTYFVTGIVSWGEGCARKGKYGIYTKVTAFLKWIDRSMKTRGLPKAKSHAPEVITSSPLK
# Sequence (P00742 41-179 partner limits assumed): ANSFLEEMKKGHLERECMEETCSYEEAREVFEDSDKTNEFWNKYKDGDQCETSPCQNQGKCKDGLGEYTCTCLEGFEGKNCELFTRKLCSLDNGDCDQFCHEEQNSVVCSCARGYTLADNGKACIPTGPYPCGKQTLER
pIC50: −log10 of the molar value.
outcome_measure: pIC50

- molecule: "NC(=O)[C@@H](Cc1csc2ccccc12)NC(=O)c1ccc(N2CCCC2=O)cc1"
  cmp: "="
  readout_number: 5.38
- molecule: "NC(=O)[C@@H]1CCCN1C1CCN(C(=O)c2cn3cc(Cl)ccc3n2)CC1"
  cmp: "<"
  readout_number: 3.52
- molecule: "NC(=O)[C@@H](Cc1c[nH]c2ccccc12)NC(=O)c1ccc(N2CCCC2=O)cc1"
  cmp: "="
  readout_number: 5.05
- molecule: "NC(=O)[C@@H](Cc1csc2ccccc12)NC(=O)c1ccc(N2CCOCC2)cc1"
  cmp: "="
  readout_number: 5.13
- molecule: "NC(=O)c1cccc(CNC(=O)c2ccc(Cl)s2)c1"
  cmp: "="
  readout_number: 4.72

* * *

# target_or_test_system: autotaxin (ATX) (Homo sapiens, UniProt Q13822)
# Construct: purchased Echelon Biosciences, Salt Lake City, UT
# protocol_text: ATX dose-response activity-based DEL screening in droplets, hit replicate count by sequencing
# Assay type: biochemical
# cond: ATX screen at 20% UV intensity
# cutoff 4 applies to k-class (20% UV); >= gives Condition met, < gives Condition not met

- molecule: "NC(=O)c1ccc2c(c1)CCN(C(=O)c1cnn(CC3CCCCC3)c1)C2 [Hit 17a]"
  group: "Condition met"
- molecule: "NC(=O)COc1ccc2c(c1)CCc1ccccc1C2NC(=O)c1ccc(Cl)o1 (stereo not shown) [Hit 13b]"
  group: "Condition not met"
- molecule: "NC(=O)Cn1c(=O)n(C2CCN(C(=O)c3ccc(Cl)cc3C(F)(F)F)CC2)c2ccccc21 [Hit 16a]"
  group: "Condition met"
- molecule: "Cc1cccn2cc(C(=O)NC3c4ccccc4CCc4cc(OCC(N)=O)ccc43)nc12 (stereo not shown) [Hit 13a]"
  group: "Condition not met"
- molecule: "NC(=O)c1cccc(CNC(=O)[C@@H]2C[C@H]2c2ccccc2)c1 [Hit 12b]"
  group: "Condition not met"

* * *

# target_or_test_system: autotaxin (ATX) (Homo sapiens, UniProt Q13822)
# Construct: purchased Echelon Biosciences, Salt Lake City, UT
# protocol_text: Biochemical assay for ATX hit validation (FS-3 substrate, microplate)

- compound: "NC(=O)Cn1c(=O)n(C2CCN(C(=O)c3ccc(Cl)cc3C(F)(F)F)CC2)c2ccccc21 [Hit 16a]"
  target_or_test_system: "autotaxin (ATX) (Homo sapiens, UniProt Q13822)"
  ATX inhibition (in words): "inhibited ATX fully"
- compound: "NC(=O)Cn1c(=O)n(C2CCN(C(=O)c3cnn(CC4CCCCC4)c3)CC2)c2ccccc21 [Hit 16b]"
  target_or_test_system: "autotaxin (ATX) (Homo sapiens, UniProt Q13822)"
  ATX inhibition (in words): "inhibited ATX fully"
- compound: "NC(=O)c1ccc2c(c1)CCN(C(=O)c1cnn(CC3CCCCC3)c1)C2 [Hit 17a]"
  target_or_test_system: "autotaxin (ATX) (Homo sapiens, UniProt Q13822)"
  ATX inhibition (in words): "inhibited ATX fully"

* * *

# target_or_test_system: factor Xa (FXa) (Homo sapiens, UniProt P00742)
# Construct: purchased R&D Systems, Minneapolis, MN
# protocol_text: Biochemical assay for FXa hit validation (fluorogenic 5-FAM/QXL-520 substrate, microplate)
# cond: FXa
Record 1.0 whenever Maximum inhibition (%) is at 90% or higher; record 0.0 when lower.

- compound: "NC(=O)c1cccc(CNC(=O)c2ccc(Cl)s2)c1 [Hit 5a]"
  group: 0.0
- compound: "NC(=O)[C@@H](Cc1csc2ccccc12)NC(=O)c1ccc(N2CCOCC2)cc1 [Hit 1b]"
  group: 0.0
- compound: "NC(=O)[C@@H](Cc1c[nH]c2ccccc12)NC(=O)c1ccc(N2CCCC2=O)cc1 [Hit 2a]"
  group: 1.0
- compound: "NC(=O)[C@@H](Cc1csc2ccccc12)NC(=O)c1ccc(N2CCCC2=O)cc1 [Hit 1a]"
  group: 1.0
- compound: "NC(=O)[C@@H]1CCCN1C1CCN(C(=O)c2cn3cc(Cl)ccc3n2)CC1 [Hit 3a]"
  group: 0.0
